Quick reference: IC50 of the listed items.
- Tested on: B.1.617.2 Delta Variant of SARS-CoV-2
- Measurement Notes: microbe, parasite or virus in culture
- Assay type: cell-based
- Experimental Conditions: Severe acute respiratory syndrome coronavirus 2, Vero C1008, Vero E6; read-out: IC 50 against B.1.617.2 Delta Variant Infection-Induced CPE
Structures can show the parent of a compound that is named as a salt.

Example molecules with recorded IC50:
>  <Molecule>
CN(Cc1cc(Br)cc(Br)c1N)C1CCCCC1 [BHH, Bromhexine hydrochloride]

>  <IC50>
17.7 µM

$$$$
>  <Molecule>
CCOC(=O)[C@H]1O[C@@H]1C(=O)N[C@@H](CC(C)C)C(=O)NCCC(C)C

>  <IC50>
9.84 µM

$$$$
>  <Molecule>
Nc1c(Br)cc(Br)cc1CN[C@H]1CC[C@H](O)CC1 [AMB, hydrochloride]

>  <IC50>
~98 µM

$$$$
>  <Molecule>
CCN(CC)CCCC(C)Nc1ccnc2cc(Cl)ccc12 (centres unmarked)

>  <IC50>
8.3 µM

$$$$

Please find the next molecule below.
Could you share what IC50 was measured for CCC(CC)COC(=O)[C@H](C)N[P@](=O)(OC[C@H]1O[C@@](C#N)(c2ccc3c(N)ncnn23)[C@H](O)[C@@H]1O)Oc1ccccc1 , tested on B.1.617.2 Delta Variant of SARS-CoV-2?
8.24 µM
